assay: self-splicing fitness, log relative to wild type (ln ratio); higher = more splicing; Tetrahymena group I intron in knt gene, E. coli kanamycin selection, DiMSum; sequences stand for … in CUCUCU…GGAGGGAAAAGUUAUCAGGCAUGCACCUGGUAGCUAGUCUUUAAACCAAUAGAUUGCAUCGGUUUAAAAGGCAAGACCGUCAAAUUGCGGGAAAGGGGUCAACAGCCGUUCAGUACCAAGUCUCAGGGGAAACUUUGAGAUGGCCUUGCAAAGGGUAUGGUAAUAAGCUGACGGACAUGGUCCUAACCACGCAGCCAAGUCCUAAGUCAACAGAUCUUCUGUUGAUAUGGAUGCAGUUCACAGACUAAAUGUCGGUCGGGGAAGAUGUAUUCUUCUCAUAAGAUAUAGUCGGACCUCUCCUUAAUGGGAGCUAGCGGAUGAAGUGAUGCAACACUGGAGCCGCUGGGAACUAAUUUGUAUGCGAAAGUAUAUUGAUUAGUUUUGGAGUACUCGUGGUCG; conditions: 30 °C;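 note: selection with 25 µg/mL kanamycin versus none on LB agar overnight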
Returns one of Satisfied or Not satisfied; Satisfied when self-splicing fitness (ln) is >= -2.

Examples from the recorded data:
> print(dat)
       polymer.sequence  assigned.class
1  CACUAGCAAUAUUACGGGUC   Not satisfied
2  UGCCAGCAAUAUUACGGAUU       Satisfied
3  CAAAAGCAAUAUUACGAUCU   Not satisfied
4  AAAGAGCAAUAUUACGUACC   Not satisfied
5  AGCCAGCAAUAUUACGAUGA   Not satisfied

Data request: Is the recorded value of self-splicing fitness (ln) equal to or greater than -2 for this sequence? `UUCCAGCAAUAUUACGACUC`
Data returned: Not satisfied

Data request: Reported self-splicing fitness (ln) reaches at least -2 for `GAUAAGCAAUAUUACGGCAA` ?
Data returned: Satisfied

====

test: self-splicing fitness, log relative to wild type (ln ratio); higher = more splicing; Tetrahymena group I intron in knt gene, E. coli kanamycin selection, DiMSum; sequences stand for … in CUCUCU…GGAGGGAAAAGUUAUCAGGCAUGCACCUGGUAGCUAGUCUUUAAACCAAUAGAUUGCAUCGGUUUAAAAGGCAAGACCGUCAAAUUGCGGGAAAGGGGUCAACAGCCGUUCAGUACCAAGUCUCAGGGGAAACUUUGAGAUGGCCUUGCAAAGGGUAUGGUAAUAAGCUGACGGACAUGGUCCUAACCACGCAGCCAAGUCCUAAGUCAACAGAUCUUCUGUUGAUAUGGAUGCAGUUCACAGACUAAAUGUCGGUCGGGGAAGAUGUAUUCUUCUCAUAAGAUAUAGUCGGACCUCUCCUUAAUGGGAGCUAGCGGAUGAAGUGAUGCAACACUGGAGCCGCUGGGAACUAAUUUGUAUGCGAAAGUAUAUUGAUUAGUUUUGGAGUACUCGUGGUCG; conditions: 37 °C
Output 1.0 for self-splicing fitness (ln) not less than -2; output 0.0 otherwise.

Data request: Given the entry `CCGAAGCAAUAUUACGUACU` , answer whether its self-splicing fitness (ln) meets or surpasses -2.
Data returned: 0.0

====

Reported self-splicing fitness (ln) values follow for various sequences
assay: self-splicing fitness, log relative to wild type (ln ratio); higher = more splicing; Tetrahymena group I intron in knt gene, E. coli kanamycin selection, DiMSum; sequences stand for … in CUCUCU…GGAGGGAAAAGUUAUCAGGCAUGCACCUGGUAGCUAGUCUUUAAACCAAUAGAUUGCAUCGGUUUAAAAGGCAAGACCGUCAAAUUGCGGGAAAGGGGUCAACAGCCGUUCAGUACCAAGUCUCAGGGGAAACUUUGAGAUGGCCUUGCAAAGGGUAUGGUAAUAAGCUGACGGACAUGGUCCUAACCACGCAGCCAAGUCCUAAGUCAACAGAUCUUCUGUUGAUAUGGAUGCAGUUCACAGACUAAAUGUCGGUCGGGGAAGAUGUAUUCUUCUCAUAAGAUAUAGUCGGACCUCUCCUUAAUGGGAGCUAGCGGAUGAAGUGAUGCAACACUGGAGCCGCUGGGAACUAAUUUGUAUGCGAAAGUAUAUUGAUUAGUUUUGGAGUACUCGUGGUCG; conditions: 37 °C
Would you mind answering with just the numeric figure?

# annotated cases, reported self-splicing fitness (ln) shown
> print(dat)
       polymer.sequence                assay.metric  measurement
1  ACCAAGCAAUAUUACGUCUG  self-splicing fitness (ln)        -1.02
2  AAGUAGCAAUAUUACGUCCU  self-splicing fitness (ln)        0.294
3  GGACAGCAAUAUUACGCUUA  self-splicing fitness (ln)          0.1
4  UAAAAGCAAUAUUACGAAAG  self-splicing fitness (ln)        -1.56

The recorded self-splicing fitness (ln) for `CUAAAGCAAUAUUACGCUUU` is -2.35

The measured self-splicing fitness (ln) associated with `UAACAGCAAUAUUACGUCAA` reads -0.769

Input `AUACAGCAAUAUUACGCAUG` . Output self-splicing fitness (ln): -0.421

`UAAGAGCAAUAUUACGCGAG` has a reported self-splicing fitness (ln) of -1.85

====

assay: self-splicing fitness, log relative to wild type (ln ratio); higher = more splicing; Tetrahymena group I intron in knt gene, E. coli kanamycin selection, DiMSum; sequences stand for … in CUCUCU…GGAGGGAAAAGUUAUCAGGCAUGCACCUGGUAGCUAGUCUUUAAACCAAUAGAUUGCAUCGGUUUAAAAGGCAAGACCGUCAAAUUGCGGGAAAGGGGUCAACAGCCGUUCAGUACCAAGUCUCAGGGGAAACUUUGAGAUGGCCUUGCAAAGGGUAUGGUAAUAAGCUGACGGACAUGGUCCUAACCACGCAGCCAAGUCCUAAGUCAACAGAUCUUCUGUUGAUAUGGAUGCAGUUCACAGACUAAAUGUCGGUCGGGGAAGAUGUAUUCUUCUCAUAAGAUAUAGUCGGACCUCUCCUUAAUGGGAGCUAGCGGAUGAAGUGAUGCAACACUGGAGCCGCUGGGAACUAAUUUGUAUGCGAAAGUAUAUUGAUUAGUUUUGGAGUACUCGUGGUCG; conditions: 37 °C
Quick reference: self-splicing fitness (ln) of the listed items.
Keep the answer to the number alone.

A selection of reference data follows.
> print(dat)
       polymer.sequence  measurement
1  ACCGAGCAAUAUUACGGCCC        -1.89
2  UGGCAGCAAUAUUACGAUGA       -0.971
3  GAGUAGCAAUAUUACGUGUU        -1.12

The recorded self-splicing fitness (ln) for `UCUUAGCAAUAUUACGAAUU` is -2.06

// field: self-splicing fitness (ln); key: `CUUGAGCAAUAUUACGCGGU` ; value = -2.78

Lookup result for `GAACAGCAAUAUUACGUUAA` ; measured self-splicing fitness (ln): -0.105

Short answer for `UUUUAGCAAUAUUACGUGGG` : self-splicing fitness (ln) was -2.27

Note to self: self-splicing fitness (ln) recorded for `GCAUAGCAAUAUUACGUGUG` was -1.57

Briefly, self-splicing fitness (ln) measured for `ACCUAGCAAUAUUACGAGCU` : -0.237

So, `UGACAGCAAUAUUACGAGCC` ? Its self-splicing fitness (ln) was -2.24

// sample `UCUGAGCAAUAUUACGGUAU` , its self-splicing fitness (ln) was -2.5

What the record says about `CGCUAGCAAUAUUACGUCCC` : self-splicing fitness (ln) is -1.54

So for `GUGCAGCAAUAUUACGCGUA` , the logged self-splicing fitness (ln) turned out to be -0.278

In plain terms, `AGUUAGCAAUAUUACGAUGG` has a documented self-splicing fitness (ln) of -1.51

Record `AGACAGCAAUAUUACGGAUG` . Reported self-splicing fitness (ln): -2.38

So for `GAAGAGCAAUAUUACGUGUG` , the logged self-splicing fitness (ln) turned out to be -2.67

The reported self-splicing fitness (ln) of the sequence `UACAAGCAAUAUUACGCUCG` was 0.16

====

assay: self-splicing fitness, log relative to wild type (ln ratio); higher = more splicing; Tetrahymena group I intron in knt gene, E. coli kanamycin selection, DiMSum; sequences stand for … in CUCUCU…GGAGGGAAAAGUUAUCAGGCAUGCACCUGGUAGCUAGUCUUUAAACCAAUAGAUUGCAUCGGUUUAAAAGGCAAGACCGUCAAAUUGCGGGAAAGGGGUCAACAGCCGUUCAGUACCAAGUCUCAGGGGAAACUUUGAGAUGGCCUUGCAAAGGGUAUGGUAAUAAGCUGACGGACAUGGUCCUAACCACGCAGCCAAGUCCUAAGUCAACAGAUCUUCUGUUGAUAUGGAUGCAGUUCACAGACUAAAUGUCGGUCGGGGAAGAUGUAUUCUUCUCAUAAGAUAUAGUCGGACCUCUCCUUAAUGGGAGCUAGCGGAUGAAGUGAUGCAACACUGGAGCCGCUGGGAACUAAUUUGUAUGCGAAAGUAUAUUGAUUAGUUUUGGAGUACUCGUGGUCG; conditions: 37 °C
ASSAY_METRIC: self-splicing fitness (ln)
Lab note: jot down the number only; don't add units.

For this sequence ( `AUUUAGCAAUAUUACGCUAU` ), measured self-splicing fitness (ln) is -0.748

Consider `GAGCAGCAAUAUUACGGACU` . Its measured self-splicing fitness (ln) is -0.127

Notebook: `UUCUAGCAAUAUUACGCCUG` , self-splicing fitness (ln) read as -1.6

get_value(item= `GUGUAGCAAUAUUACGCAGU` , readout=self-splicing fitness (ln)) returns -2.46
